B1: TMEM106C (parent)
chain: YVTTNVSLIPPRSEQLVNFTGKAE

# Variants of: B1
# test-summary: protein stability index of a GFP-peptide fusion (GPS, HEK-293T) (PSI 1-6); higher = more stable;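 also: lentivirally expressed fusions sorted by FACS into six bins by GFP to DsRed ratio, PSI derived from sequencing read proportions per bin multiplied by bin number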
# condition-context: c terminus: a fixed tail appended
# key: entry, value: protein stability index
Reply with the value as a number alone.

## Task # get_value(readout='protein stability index', item= YVTTNVSLIPPRSEQLVNFTDKAE [G21D] )
## Result 2.71

## Task # get_value(readout='protein stability index', item= YVTTNVSLIPPRSEQLVPFTGKAE [N18P] )
## Result 2.4
